Values were extracted from patent US20170189507A1.

- Target Of Assay: HLA-A*24 (human)
- Protocol Notes: UV-ligand exchange ELISA
Parameter Measured: peptide exchange yield

Example binders with recorded peptide exchange yield:
Binder	Readout Value
KYPVEWAKF [peptide SEQ ID No 289]	> 75%
LYHDIFSRL [peptide SEQ ID No 271]	> 75%
TYKDEGNDYF [peptide SEQ ID No 209]	50 to 75%
TYGDAGLTYTF [peptide SEQ ID No 283]	50 to 75%
SYALLTYMI [peptide SEQ ID No 192]	> 75%
DYLKGLASF [peptide SEQ ID No 163]	> 75%

Qu. Recall and state the measured peptide exchange yield for IFPQFLYQF [peptide SEQ ID No 186] .
Ans. > 75%
